# System: FGR
# Condition Info: concentration: 1 μM, replicates: in singlicate; n = 1

# Compound, Experimental Target, %Inh
records = [
    ("COc1cccc(-c2cc(-c3c[nH]nc3-c3ccccn3)ccn2)c1", "FGR", "19%"),
    ("Cc1cccc(-c2nc(Nc3cccc(C(N)=O)c3)c3ccccc3n2)n1", "FGR", "58%"),
    ("CC1=C(C(=O)Nc2cc3cn[nH]c3cc2F)C(c2ccc(C(F)(F)F)cc2)CC(=O)N1 (centres unmarked)", "FGR", "24%"),
    ("Fc1cccc(COc2nnc(-c3ccc4c(c3)CCO4)o2)c1", "FGR", "19%"),
    ("Cc1cccc(-c2nc(Nc3ccncc3)c3ccccc3n2)n1", "FGR", "31%"),
    ("O=c1cc(N2CCOCC2)nc2n(Cc3cccc(Cl)c3Cl)ccn12", "FGR", "16%"),
    ("CS(=O)(=O)c1ccc(-c2c(-c3ncn[nH]3)sc(N3CCOCC3)c2C#N)cc1", "FGR", "40%"),
    ("Nc1nc(-c2nccs2)c(-c2ccnc3ccccc23)s1", "FGR", "9%"),
    ("Cc1nnc(-c2ccc3occ(-c4ccc(S(C)=O)cc4)c3c2)[nH]1 (centres unmarked)", "FGR", "19%"),
    ("Cc1cc(-c2ccc3c(c2)CC[C@@H](N[C@@H](C)c2ccccc2)C3)cnc1N.Cl", "FGR", "26%"),
    ("COc1cc2nccc(Nc3ccc(NC(=O)c4ccc(C)cc4)c(O)c3)c2cc1OC.Cl", "FGR", "37%"),
    ("Cc1cccc(-c2cc(Nc3ccncc3)c3ccccc3n2)n1", "FGR", "7%"),
    ("O=C(Nc1ccc2c(c1)OCO2)NC1CCN(c2ccnc(Nc3ccc(F)cc3)n2)C1 (centres unmarked)", "FGR", "11%"),
    ("COC(=O)c1c(-c2ccccc2)c2cc(C(=O)O)ccc2c(=O)n1Cc1ccccc1", "FGR", "0%"),
    ("CN1C(=O)C(Nc2ccc(Cl)c(C(=O)O)c2)=C(c2ccc(Cl)cc2)C1=O", "FGR", "0%"),
    ("COc1ccccc1CNC(=O)c1cc(C(=O)c2ccccc2C)c[nH]1", "FGR", "23%"),
    ("C[C@@H]1CCCCN1c1cc(-c2ccc3c(N)n[nH]c3c2)nc(N)n1", "FGR", "17%"),
    ("O=S(=O)(c1ccc(-c2ccnc3[nH]ccc23)cc1)N1CCCC1", "FGR", "16%"),
    ("O=C(Nc1ccccc1)Nc1cccc(Oc2ccc3nccn3n2)c1", "FGR", "18%"),
    ("COC(=O)c1c(-c2ccccc2)c2cc(OC)ccc2c(=O)n1Cc1ccccc1", "FGR", "29%"),
    ("Cc1csc(-c2nc(Nc3ccncc3)c3ccccc3n2)n1", "FGR", "7%"),
    ("Clc1cc(Cl)cc(Nc2ccnc(Nc3cc(Cl)cc(Cl)c3)n2)c1", "FGR", "46%"),
    ("Cc1ccc(-c2cc(-c3c[nH]nc3-c3ccccn3)ccn2)cc1", "FGR", "22%"),
    ("COc1cc(Nc2nccc(N3CCC(NC(=O)Nc4cc(C)ccc4C)C3)n2)cc(OC)c1OC (centres unmarked)", "FGR", "14%"),
    ("CC(C)(C)c1ccc(C(=O)Nc2cn3cc(-c4cccnc4)ccc3n2)cc1", "FGR", "19%"),
    ("CN(C)CCN(C)C(=O)c1cc(-c2ccncc2)c(-c2ccc(Cl)c(O)c2)o1.Cl.Cl", "FGR", "16%"),
    ("Cc1cc(NCC(c2ccccc2)c2ccccc2)nc(NCc2ccc(C(F)(F)F)cc2)n1", "FGR", "20%"),
    ("Fc1cc(Cl)ccc1Nc1ccnc2cc(-c3ccc(CN4CCCCC4)o3)ccc12", "FGR", "31%"),
    ("Fc1cc(Cl)ccc1Nc1ccnc2cc(I)ccc12", "FGR", "30%"),
    ("O=C(Nc1n[nH]c2cc(-c3cccc(F)c3F)ccc12)C1CC1", "FGR", "61%"),
    ("Cc1cccc(-c2nc(-c3ccc(S(C)(=O)=O)cc3)sc2-c2ccnc(NCCc3ccccc3)c2)c1", "FGR", "0%"),
    ("Cc1c(Cn2ccn3c(=O)cc(N4CCOCC4)nc23)cccc1C(F)(F)F", "FGR", "14%"),
    ("COc1ccccc1-c1ccc2c(NC(=O)C3CC3)n[nH]c2n1", "FGR", "26%"),
    ("CCCc1ccc(S(=O)(=O)NC2CCN(c3ccnc(Nc4ccc(F)cc4)n3)C2)cc1 (centres unmarked)", "FGR", "23%"),
    ("NC(=O)c1nnc2ccccc2c1N", "FGR", "21%"),
    ("COc1ccc(Nc2nccc(NCCNC(=O)Nc3ccccc3F)n2)cc1", "FGR", "36%"),
    ("COc1ccc2nc(-c3cccc(C)n3)nc(Nc3ccncc3)c2c1", "FGR", "27%"),
    ("O=C(Nc1n[nH]c2nc(-c3nccs3)c(Br)cc12)C1CCCC1", "FGR", "20%"),
]

====

# Lookup of reported %Inh keyed by entry
# Tested on: CDK4
# Condition Info: concentration: 1 μM, replicates: in singlicate; n = 1

# Smiles Text, %Inh / %
data = [
    ("Cc1cccc(-c2nc(Nc3ccncc3)c3ccccc3n2)n1", 0),
    ("C[C@@H]1CCCCN1c1cc(-c2ccc3c(N)n[nH]c3c2)nc(N)n1", 21),
    ("Cl.Oc1ccc(-c2nc(-c3ccccc3)[nH]c2-c2ccncc2)cc1", 0),
    ("COc1ccc(Nc2nccc(-c3cccc(NC(=O)c4cc5cc(F)ccc5[nH]4)c3)n2)cc1", 48),
]

====

# Tested on: PYK2
# Construct: gene PTK2B
# Condition Info: concentration: 1 μM, replicates: in singlicate; n = 1
Measured %Inh determines class: band 1: < 1%; band 2: ≥ 1% and < 10%; band 3: ≥ 10%

# Compound, Label Class
rows = [
    ("Cl.c1ccc(-c2n[nH]cc2-c2ccnc(-c3ccc(CN4CCOCC4)cc3)c2)nc1", "band 3"),
    ("Cc1cc(NCC(c2ccccc2)c2ccccc2)nc(NCc2ccc(C(F)(F)F)cc2)n1", "band 2"),
    ("Cc1cc(N2Cc3ccccc3C2)nc(Nc2ccc(S(=O)(=O)N3CCOCC3)cc2)n1.Cl", "band 1"),
    ("Cl.NC(=O)c1cccc(Nc2nccc(Nc3ccc(Oc4cccc(Cl)c4)c(Cl)c3)n2)c1", "band 3"),
    ("CCCc1ccc(S(=O)(=O)NC2CCN(c3ccnc(Nc4ccc(F)cc4)n3)C2)cc1 (centres unmarked)", "band 1"),
    ("Clc1cc(Cl)cc(Nc2ccnc(Nc3cc(Cl)cc(Cl)c3)n2)c1", "band 3"),
    ("COc1ccc(Nc2nccc(-c3cccc(NC(=O)c4cc5cc(F)ccc5[nH]4)c3)n2)cc1", "band 3"),
    ("Cc1cccc(-c2nc(Nc3cccc(C(N)=O)c3)c3ccccc3n2)n1", "band 2"),
    ("O=C1NC(=O)C(N2CCc3ccccc32)=C1c1ccccc1Cl", "band 1"),
    ("COc1ccccc1-c1ccc2c(NC(=O)C3CC3)n[nH]c2n1", "band 1"),
    ("Cc1cccc(-c2cc(Nc3ccncc3)c3ccccc3n2)n1", "band 3"),
    ("Cc1cccc(-c2nc(C)cc(Nc3ccncc3)n2)n1", "band 1"),
    ("COc1cc(Nc2nccc(N3CCC(NC(=O)Nc4cc(C)ccc4C)C3)n2)cc(OC)c1OC (centres unmarked)", "band 2"),
    ("COc1ccccc1CNC(=O)c1cc(C(=O)c2ccccc2C)c[nH]1", "band 2"),
    ("Cc1ccc(NC(=O)Nc2cc(C(C)(C)C)nn2-c2ccccc2)cc1", "band 2"),
]

====

# System: CSNK1D;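 further: kd values determined as follow-up on hits from a single-replicate KINOMEscan panel screen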
Measurement Type: Kd (nM)

# Smiles Text, Experimental Target, Measurement Type, Value
measured = [
    ("CN(C)CCN(C)C(=O)c1cc(-c2ccncc2)c(-c2ccc(Cl)c(O)c2)o1.Cl.Cl", "CSNK1D", "Kd", 220),
]

====

# System: HIPK4
# Condition Info: concentration: 1 μM, replicates: in singlicate; n = 1

# Compound, Experimental Target, %Inh (%)
measured = [
    ("Cc1cccc(-c2nc(Nc3cccc(C(N)=O)c3)c3ccccc3n2)n1", "HIPK4", 0),
    ("Cc1ccccc1-n1cnc2c(N)ncnc21", "HIPK4", 0),
    ("COc1ccccc1-c1ccc2c(NC(=O)C3CC3)n[nH]c2n1", "HIPK4", 0),
    ("Cc1ccc(NC(=O)Nc2cc(C(C)(C)C)nn2-c2ccccc2)cc1", "HIPK4", 0),
    ("COc1cc(Nc2nccc(N3CCC(NC(=O)Nc4cc(C)ccc4C)C3)n2)cc(OC)c1OC (stereo not drawn)", "HIPK4", 0),
    ("Cn1ccc2ncnc(Oc3cccc(C(=O)Nc4ccccc4)c3)c21", "HIPK4", 0),
    ("Nc1ncnc2[nH]c(-c3ccccc3)nc12", "HIPK4", 21),
    ("COc1cc2ncnc(Nc3ccc4nc(-c5ccccc5)[nH]c4c3)c2cc1OC.Cl", "HIPK4", 35),
    ("COC(=O)c1c(-c2ccccc2)c2cc(OC)ccc2c(=O)n1Cc1ccccc1", "HIPK4", 0),
]
